// reported EC50 for each item listed
# test_details: Cytotoxicity against mouse BA/F3 cells
# Format: cell-based
# details: BaF3

Solved cases (10 shown):
FC(F)(F)Oc1ccc(Nc2ncnc3c2ccn3CCN2CCOCC2)cc1 : > 10 µM
FC(F)(F)Oc1ccc(Nc2ncnc3c2cnn3Cc2ccncc2)cc1 : > 10 µM
NC(=O)Cn1ncc2c(Nc3ccc(OC(F)(F)F)cc3)ncnc21 : 3.3 µM
COC(=O)c1cc2c(Nc3ccc(OC(F)(F)F)cc3)ncnc2s1 : > 10 µM
FC(F)(F)Oc1ccc(Nc2cc(-c3cccc4[nH]ccc34)ncn2)cc1 : 3.79 µM
FC(F)(F)Oc1ccc(-c2cc(NCCN3CCOCC3)ncn2)cc1 : > 10 µM
CCCn1cc2c(Nc3ccc(OC(F)(F)F)cc3)ncnc2n1 : > 10 µM
COCCCNC(=O)CCn1ccc2c(Nc3ccc(OC(F)(F)F)cc3)ncnc21 : > 10 µM
FC(F)(F)Oc1ccc(Nc2cc(NCCN3CCOCC3)ncn2)cc1 : > 10 µM
FC(F)(F)Oc1cccc(Nc2cc(NCCN3CCOCC3)ncn2)c1 : > 10 µM

Suppose we examine the compound `FC(F)(F)Oc1ccc(Nc2ncnc3nn(Cc4cccnc4)cc23)cc1` ; what EC50 value has been reported?
> 10 µM

Looking for the measured EC50 of `NC(=O)c1ccccc1-c1cc(Nc2ccc(OC(F)(F)F)cc2)ncn1` , can you help?
> 10 µM

Quick check: EC50 of `CN(c1ccc(OC(F)(F)F)cc1)c1cc(NCCN2CCOCC2)ncn1` ?
> 10 µM

State the recorded EC50 for this entry: `Cc1nc(C)c(Cn2ncc3c(Nc4ccc(OC(F)(F)F)cc4)ncnc32)s1`
> 10 µM

What value of EC50 has been reported for the following compound? `Cc1c(NCCN2CCOCC2)ncnc1Nc1ccc(OC(F)(F)F)cc1`
> 10 µM

For the compound `FC(F)(F)Oc1ccc(Nc2cc(-c3ccnc4[nH]ccc34)ncn2)cc1` , what EC50 is on record?
6.85 µM

Quick one: EC50 for `FC(F)(F)Oc1ccc(Nc2ncnc3nn(Cc4ccccc4)cc23)cc1` ?
> 10 µM

Look at this compound and give its reported EC50. `Cc1nc(NCCN2CCOCC2)cc(Nc2ccc(OC(F)(F)F)cc2)n1`
1.11 µM

Recorded EC50 of `FC(F)(F)Oc1ccc(Nc2cc(-n3ccnc3)ncn2)cc1` , please.
> 10 µM

---

# test_details: Cytotoxicity against mouse BA/F3 cells
# Type: cell-based
# details: BaF3
metric_name: EC50 (µM)
Give just the numeric value; µM need not be written.

O=C(c1cc2c(Nc3ccc(OC(F)(F)F)cc3)ncnc2s1)N1CCNCC1 : 4.07

Okay, now this compound:
Returns the measured EC50 for the input compound. Input: `Cc1ccc(C(=O)Nc2cccc(C(F)(F)F)c2)cc1NC(=O)c1cc2c(Nc3ccc(OC(F)(F)F)cc3)ncnc2s1`
8.9

---

# test_details: Cytotoxicity against mouse BA/F3 cells
# Assay type: cell-based
# details: BaF3
pEC50: −log10 of the molar value.
metric_name: pEC50

FC(F)(F)Oc1ccc(Nc2nccc(NCCN3CCOCC3)n2)cc1 : < 5.00
NC(=O)c1ccc(Cn2ncc3c(Nc4ccc(OC(F)(F)F)cc4)ncnc32)cc1 : < 5.00

GET /values?readout=pEC50&item= `Cc1nc(-c2cc(Nc3ccc(OC(F)(F)F)cc3)ncn2)cs1`
< 5.00
